pIC50: −log10 of the molar value.
// values below are pIC50; system is UniProtKB O00329
Sequence (O00329 whole entry): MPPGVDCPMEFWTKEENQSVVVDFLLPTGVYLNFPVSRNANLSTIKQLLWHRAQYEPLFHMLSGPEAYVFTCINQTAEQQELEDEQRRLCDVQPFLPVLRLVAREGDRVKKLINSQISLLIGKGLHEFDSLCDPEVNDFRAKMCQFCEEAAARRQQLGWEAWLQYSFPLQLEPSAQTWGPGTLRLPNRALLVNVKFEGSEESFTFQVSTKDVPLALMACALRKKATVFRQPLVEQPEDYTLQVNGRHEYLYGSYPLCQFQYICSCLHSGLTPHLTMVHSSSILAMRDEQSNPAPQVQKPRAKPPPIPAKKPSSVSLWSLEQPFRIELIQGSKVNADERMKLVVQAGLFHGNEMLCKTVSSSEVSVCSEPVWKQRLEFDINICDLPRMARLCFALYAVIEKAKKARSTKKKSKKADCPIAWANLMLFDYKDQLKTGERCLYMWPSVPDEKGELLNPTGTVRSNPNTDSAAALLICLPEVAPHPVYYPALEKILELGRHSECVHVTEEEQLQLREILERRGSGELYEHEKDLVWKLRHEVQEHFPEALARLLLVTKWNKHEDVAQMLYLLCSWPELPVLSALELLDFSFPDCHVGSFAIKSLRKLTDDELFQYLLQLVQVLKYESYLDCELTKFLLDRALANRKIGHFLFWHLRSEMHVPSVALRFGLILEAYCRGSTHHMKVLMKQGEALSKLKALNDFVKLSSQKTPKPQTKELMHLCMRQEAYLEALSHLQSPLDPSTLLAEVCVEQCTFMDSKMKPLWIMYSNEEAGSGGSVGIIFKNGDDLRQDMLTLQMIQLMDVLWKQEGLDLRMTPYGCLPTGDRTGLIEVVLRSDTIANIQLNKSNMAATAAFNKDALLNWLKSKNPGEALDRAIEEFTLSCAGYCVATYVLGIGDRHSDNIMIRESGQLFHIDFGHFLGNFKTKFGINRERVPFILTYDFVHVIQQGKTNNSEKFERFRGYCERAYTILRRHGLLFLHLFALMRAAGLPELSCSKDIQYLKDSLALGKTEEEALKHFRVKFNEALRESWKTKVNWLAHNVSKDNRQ
Sequence (P27986 whole entry partner): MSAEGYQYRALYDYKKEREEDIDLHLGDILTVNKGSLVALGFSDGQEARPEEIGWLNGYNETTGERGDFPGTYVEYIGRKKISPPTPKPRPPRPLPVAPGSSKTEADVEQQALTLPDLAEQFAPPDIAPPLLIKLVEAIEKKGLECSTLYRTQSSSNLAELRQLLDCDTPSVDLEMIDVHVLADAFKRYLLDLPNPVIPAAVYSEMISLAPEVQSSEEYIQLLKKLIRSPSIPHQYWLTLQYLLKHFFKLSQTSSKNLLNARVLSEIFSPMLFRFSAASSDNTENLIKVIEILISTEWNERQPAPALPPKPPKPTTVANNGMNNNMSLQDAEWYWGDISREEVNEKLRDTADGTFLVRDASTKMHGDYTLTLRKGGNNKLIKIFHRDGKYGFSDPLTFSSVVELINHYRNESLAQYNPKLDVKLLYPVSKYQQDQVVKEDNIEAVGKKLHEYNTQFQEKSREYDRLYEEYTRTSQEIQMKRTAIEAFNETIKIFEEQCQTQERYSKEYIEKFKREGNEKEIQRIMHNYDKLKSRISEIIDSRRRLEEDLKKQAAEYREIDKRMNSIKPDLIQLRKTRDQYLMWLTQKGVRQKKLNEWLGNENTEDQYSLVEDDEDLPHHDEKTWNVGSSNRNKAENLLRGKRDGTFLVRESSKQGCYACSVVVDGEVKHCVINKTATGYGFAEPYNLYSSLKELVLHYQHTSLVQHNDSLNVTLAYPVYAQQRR
ASSAY ENDPOINT: pIC50

Some compounds with known pIC50 results, for comparison:
{"COMPOUND": "CC(C)(C)N1CCN(Cc2csc3c(-c4cccc5[nH]ccc45)nc(N4CCOCC4)nc23)CC1 [Compound 15]", "TARGET OF ASSAY": "UniProtKB O00329", "ASSAY ENDPOINT": "pIC50", "TEST VALUE": 7.47}
{"COMPOUND": "COc1ncc(-c2nc(N3CCOCC3)nc3c(CN4CCC(CO)CC4)c(C)sc23)cc1NS(C)(=O)=O [Compound 117]", "TARGET OF ASSAY": "UniProtKB O00329", "ASSAY ENDPOINT": "pIC50", "TEST VALUE": 8.14}
{"COMPOUND": "COc1ncc(-c2nc(N3CCOCC3)nc3c(CN4CCN(C(=O)[C@@H](C)O)CC4)c(C)sc23)cc1NS(C)(=O)=O [Compound 73]", "TARGET OF ASSAY": "UniProtKB O00329", "ASSAY ENDPOINT": "pIC50", "TEST VALUE": 8.36}

1: COc1ncc(-c2nc(N3CCOCC3)nc3c(CN4CCN(C(=O)OC(C)(C)C)CC4)csc23)cc1NS(C)(=O)=O [Compound 28]
2: COc1ncc(-c2nc(N3CCOCC3)nc3c(CN4CCC(OC(C)C)CC4)c(C)sc23)cc1NS(C)(=O)=O [Compound 145]
3: COc1ncc(-c2nc(N3CCOCC3)nc3c(CN4CCC(C)CC4)c(C)sc23)cc1NS(C)(=O)=O [Compound 101]
4: COc1ncc(-c2nc(N3CCOCC3)nc3c(CN4CC[C@@H](N5CCCC5)C4)c(C)sc23)cc1NS(C)(=O)=O [Compound 130]
Put the compounds in ascending order of pIC50. Present the labels in the sequence the task asks for.
1, 3, 4, 2
(1: 7.46, 3: 7.92, 4: 8.17, 2: 8.42)
